- test-system: human SOS1 (nucleotide exchange of K-Ras^G12C) (Homo sapiens)
- experiment-notes: Biochemical assay 2: K-Ras^G12C activation assay by hSOS1 at high GTP concentration (HTRF)
- condition-details: read-out: Assay 2 (KRAS-Activation by SOS high GTP) activity expressed as % inhibition at 20 μM; high GTP; at 20 μM
Reported inhibition at 20 µM values are given for each entry in this list.
reported-property: inhibition at 20 µM

molecule="COc1cc2nc(C)nc(N[C@@H](C)c3ccc(-c4cccc(C(F)(F)F)c4)s3)c2cc1OC (stereo in doubt)" reported_property="inhibition at 20 µM" endpoint_value=38%
molecule="COc1cc2nc(C)nc(N[C@@H](C)c3ccc(-c4cncc(S(C)(=O)=O)c4)s3)c2cc1OC (racemic)" reported_property="inhibition at 20 µM" endpoint_value=44%
molecule="CCCCOc1cccc(F)c1-c1ccc([C@H](C)Nc2nc(C)nc3cc(OC)c(OC)cc23)s1 (stereo in doubt)" reported_property="inhibition at 20 µM" endpoint_value=20%
molecule="COc1cc2nc(C)nc(N[C@@H](C)c3ccc(-c4cc(Cl)cc(Cl)c4)s3)c2cc1OC (stereo in doubt)" reported_property="inhibition at 20 µM" endpoint_value=17%

---

Reported pIC50 values are given for each entry in this list.
- test-system: human SOS1 (nucleotide exchange of K-Ras^G12C) (Homo sapiens)
- experiment-notes: Biochemical assay 2: K-Ras^G12C activation assay by hSOS1 at high GTP concentration (HTRF)
- condition-details: high GTP; read-out: Assay 2 (KRAS-Activation by SOS high GTP) activity expressed as IC50
pIC50: −log10 of the molar value.
reported-property: pIC50

compound="COc1cc2nc(C)nc(N[C@@H](C)c3ccc(-c4cccc5[nH]ccc45)s3)c2cc1OC (racemic) [Example 171]" endpoint_value=5.47
compound="COc1cc2nc(C)nc(N[C@H](C)c3ccc(C4CC4)cc3)c2cc1OC [Example 197]" endpoint_value=6.52
compound="COc1cc2nc(C)nc(N[C@H](C)c3cccc(-c4ccc5c(c4)OCCO5)c3)c2cc1OC [Example 125]" endpoint_value=5.96
compound="COc1cc2nc(C)nc(NC(C)c3ccc(-c4ccccc4)o3)c2cc1OC (single isomer, unassigned) [Example 224]" endpoint_value=5.59

---

- test-system: UniProt:P00533
- Sequence (P00533 25-1210): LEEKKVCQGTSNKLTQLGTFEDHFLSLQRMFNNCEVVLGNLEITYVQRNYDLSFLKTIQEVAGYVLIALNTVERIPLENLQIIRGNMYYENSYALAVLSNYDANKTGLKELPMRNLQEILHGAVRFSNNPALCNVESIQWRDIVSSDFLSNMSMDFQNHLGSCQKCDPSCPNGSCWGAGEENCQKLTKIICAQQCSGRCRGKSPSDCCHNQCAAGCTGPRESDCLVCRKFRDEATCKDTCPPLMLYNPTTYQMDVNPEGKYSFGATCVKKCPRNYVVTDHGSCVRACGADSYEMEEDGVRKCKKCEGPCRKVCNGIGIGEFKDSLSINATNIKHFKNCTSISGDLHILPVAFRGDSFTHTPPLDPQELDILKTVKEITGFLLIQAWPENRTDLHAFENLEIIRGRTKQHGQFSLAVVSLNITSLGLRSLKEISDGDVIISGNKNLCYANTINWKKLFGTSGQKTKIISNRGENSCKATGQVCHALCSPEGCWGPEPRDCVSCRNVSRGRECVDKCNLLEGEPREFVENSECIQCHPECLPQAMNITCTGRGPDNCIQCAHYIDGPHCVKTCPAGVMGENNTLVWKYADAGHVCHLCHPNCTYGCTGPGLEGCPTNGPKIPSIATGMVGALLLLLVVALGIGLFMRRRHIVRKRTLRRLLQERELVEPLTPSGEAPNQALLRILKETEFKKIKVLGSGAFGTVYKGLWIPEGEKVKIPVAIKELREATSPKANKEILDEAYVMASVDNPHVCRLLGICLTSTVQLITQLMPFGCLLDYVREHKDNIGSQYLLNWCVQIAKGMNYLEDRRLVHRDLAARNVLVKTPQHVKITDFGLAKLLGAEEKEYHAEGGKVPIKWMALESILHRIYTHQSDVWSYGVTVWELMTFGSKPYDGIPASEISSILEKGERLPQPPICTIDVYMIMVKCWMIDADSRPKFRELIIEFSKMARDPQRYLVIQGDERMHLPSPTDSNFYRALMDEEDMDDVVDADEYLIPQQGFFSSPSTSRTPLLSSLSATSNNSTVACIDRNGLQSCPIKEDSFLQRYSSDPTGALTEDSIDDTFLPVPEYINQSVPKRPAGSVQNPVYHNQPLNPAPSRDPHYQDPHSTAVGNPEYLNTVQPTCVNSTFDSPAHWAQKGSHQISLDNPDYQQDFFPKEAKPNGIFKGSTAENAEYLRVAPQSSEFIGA
- experiment-notes: EGFR kinase assay (TR-FRET)
- Type: biochemical
- condition-details: unit inferred; read-out: EGFR kinase inhibition IC50
Reported log10 of IC50 values are given for each entry in this list.
reported-property: log10 of IC50 (log10 of the value in µM)

molecule="COc1cc2ncnc(N[C@H](C)c3cccc4ccccc34)c2cc1OC [Reference compound, reference compound]" reported_property="log10 of IC50" endpoint_value=-0.26
molecule="COc1cc2nc(C)nc(N[C@H](C)c3cccc(Cl)c3)c2cc1OC [Example 2]" reported_property="log10 of IC50" endpoint_value=1.21
molecule="COc1cc2nc(C)nc(NC(C)c3cccc(Oc4ccccc4)c3)c2cc1OC (single isomer, unassigned; enantiomer 1) [Example 228]" reported_property="log10 of IC50" endpoint_value=-0.47
molecule="COc1cc2nc(C)nc(N[C@H](C)c3cccc(-c4ccc(O)nc4)c3)c2cc1OC [Example 68]" reported_property="log10 of IC50" endpoint_value=0.84
molecule="COc1cc2nc(C)nc(NC(C)c3cccc(Oc4ccccc4)c3)c2cc1OC (stereo not drawn) [Example 215]" reported_property="log10 of IC50" endpoint_value=0.41
molecule="COc1cc2nc(C)nc(NC(C)c3nccc4sccc34)c2cc1OC (stereo not drawn) [Example 333]" reported_property="log10 of IC50" endpoint_value=1.21

Hey, just so you know, these numbers are from patent US20240083857A1.
